- ASSAY TEXT: DLS size of dendrimersomes assembled from glycerol-JDs in water at different concentrations
- Assay type: physicochemical
- TEST PARAMETERS: JD 0.15 mg·mL−1 in water
ASSAY ENDPOINT: PDI
The reply should be a number, written without any unit.

The recorded PDI for entry CCCCCCCCCCCCOc1cc(OCCCCCCCCCCCC)cc(C(=O)OCC(C)(COC(=O)c2cc(OCCCCCCCCCCCC)cc(OCCCCCCCCCCCC)c2)C(=O)OC[C@@H](COC(=O)c2cc(OCCOCCOCCOC)c(OCCOCCOCCOC)c(OCCOCCOCCOC)c2)OC(=O)c2cc(OCCOCCOCCOC)c(OCCOCCOCCOC)c(OCCOCCOCCOC)c2)c1 [Compound 2R, (3,5)-12G1-BMPA-GC-(R)-(3,4,5)-3EO-G1] equals 0.257

The recorded PDI for entry CCCCCCCCCCCCOc1cc(OCCCCCCCCCCCC)cc(C(=O)OC[C@H](COC(=O)C(C)(COC(=O)c2cc(OCCOCCOCCOC)c(OCCOCCOCCOC)c(OCCOCCOCCOC)c2)COC(=O)c2cc(OCCOCCOCCOC)c(OCCOCCOCCOC)c(OCCOCCOCCOC)c2)OC(=O)c2cc(OCCCCCCCCCCCC)cc(OCCCCCCCCCCCC)c2)c1 [Compound 1R, (3,5)-12G1-GC-(R)-BMPA-(3,4,5)-3EO-G1] equals 0.195

The recorded PDI for entry CCCCCCCCCCCCOc1cc(OCCCCCCCCCCCC)cc(C(=O)OCC(C)(COC(=O)c2cc(OCCCCCCCCCCCC)cc(OCCCCCCCCCCCC)c2)C(=O)OC[C@H](COC(=O)c2cc(OCCOCCOCCOC)c(OCCOCCOCCOC)c(OCCOCCOCCOC)c2)OC(=O)c2cc(OCCOCCOCCOC)c(OCCOCCOCCOC)c(OCCOCCOCCOC)c2)c1 [Compound 2S, (3,5)-12G1-BMPA-GC-(S)-(3,4,5)-3EO-G1] equals 0.212

* * *

- ASSAY TEXT: Dimensions (size, PDI) of DNPs co-assembled from IAJDs and Luc-mRNA by DLS
- Format: physicochemical
- TEST PARAMETERS: Table 14; DNPs, IAJD 4 mg/mL + Luc-mRNA 0.10 mg/mL, acetate buffer pH 4.0
Items are presented alongside their recorded PDI.
The reply should be a number, written without any unit.

Solved cases (10 shown):
| COMPOUND | PDI |
| --- | --- |
| CCCCCCCCOc1cc(COC(=O)CCCN2CCN(C)CC2)cc(OCCCCCCCC)c1 [IAJD 88] | 0.342 |
| CCCCCCCCCCCCCCOc1cc(COC(=O)CCCN2CCN(C)CC2)cc(OCCCCCCCCCCCCCC)c1 [IAJD 74] | 0.317 |
| CCCCCCCOC(=O)CCCCOc1cc(COC(=O)CCCN2CCN(C)CC2)cc(OCCCCC(=O)OCCCCCCC)c1 [IAJD 85] | 0.250 |
| CCCCCCCCCCCCOc1ccc(COC(=O)CCCN2CCN(C)CC2)cc1OCCCCCCCCCCCC [IAJD 78] | 1.000 |
| CCCCCCCCCCCCOc1cc(COC(=O)CCCN2CCCCC2)cc(OCCCCCCCCCCCC)c1 [IAJD 65] | 0.249 |
| CCCCCCCCCCCCCCCCOc1cc(COC(=O)CCCN2CCN(C)CC2)cc(OCCCCCCCCCCCCCCCC)c1 [IAJD 75] | 0.328 |
| CCCCCCCCCCCCOc1cc(COC(=O)CCCN2CCN(CCO)CC2)cc(OCCCCCCCCCCCC)c1 [IAJD 71] | 0.451 |
| CCCCCCCCCCCCOCC(COCCCCCCCCCCCC)(COCCCCCCCCCCCC)COC(=O)CCCN1CCN(C)CC1 [IAJD 82] | 0.144 |
| CCCCCCCCCCCCOc1cc(COC(=O)CCCN2CCN(C)CC2)cc(OCCCCCCCCCCCC)c1OCCCCCCCCCCCC [IAJD 79] | 0.763 |
| CCCCCCCCCCCCCCCCCCOc1cc(COC(=O)CCCN2CCN(C)CC2)cc(OCCCCCCCCCCCCCCCCCC)c1 [IAJD 98] | 0.221 |

The recorded PDI for entry CCCCC(CC)COc1cc(COC(=O)CCCN2CCN(CCO)CC2)cc(OCC(CC)CCCC)c1 (stereo not shown) [IAJD 87] equals 0.486

The recorded PDI for entry CCCCCCCCCCCCCCCCOc1cc(COC(=O)CCCN2CCN(C)CC2)cc(OCCCCCCCCCCCC)c1 [IAJD 106] equals 0.275

The recorded PDI for entry CCCCCCCCCCCCCCCCCCOc1cc(COC(=O)CCCN2CCN(C)CC2)cc(OCCCCCCCCCCCC)c1 [IAJD 107] equals 0.279

The recorded PDI for entry CCCCCCCCCCCCCCCCOc1cc(COC(=O)CCCN2CCN(C)CC2)cc(OCCCCCCCCCCC)c1 [IAJD 86] equals 0.234

The recorded PDI for entry CCCCCCCCCOc1cc(COC(=O)CCCN2CCN(C)CC2)cc(OCCCCCCCCC)c1 [IAJD 77] equals 0.267

The recorded PDI for entry CCCCC(CC)COc1cc(COC(=O)CCCN2CCN(CCO)CC2)cc(OCC(CC)CCCC)c1OCC(CC)CCCC (stereo not shown) [IAJD 97] equals 0.482

* * *

- ASSAY TEXT: Dimensions (size, PDI) of DNPs co-assembled from IAJDs and Luc-mRNA by DLS
- Format: physicochemical
- TEST PARAMETERS: Table 17; DNPs used in vivo, IAJD 4 mg/mL, Luc-mRNA 0.10 mg/mL, acetate pH 4.0
Please use yes whenever Size (d, nm) is not below 100 nm, and no whenever it is.

Record excerpt, results attached:
| MOLECULE | CLASS ASSIGNMENT |
| --- | --- |
| CCCCCCCCCCCCCOc1cc(COC(=O)CCCN2CCN(C)CC2)cc(OCC(CC)CCCC)c1 (stereo not drawn) [IAJD 161] | yes |
| CCCCCCCCCCCCCCCOc1cc(COC(=O)CCCN2CCN(CCO)CC2)cc(OCCCCCCCCCCCCC)c1 [IAJD 146] | yes |

Q: Given the entry CCCCCCCCCCCCCCCOc1cc(COC(=O)CCCN2CCN(C)CC2)cc(OCCCCCCCCCCCCCC)c1 [IAJD 147] , answer whether its Size (d, nm) meets or surpasses 100 nm.
A: yes

Q: Given the entry CCCCCCCCCCCCCCOc1cc(COC(=O)c2cc(OCCOCCOCCCC(=O)CCCN3CCCCC3)c(OCCOCCOCCOCc3ccccc3)c(OCCOCCOCCOC(=O)CCCN3CCCCC3)c2)cc(OCCCCCCCCCCC)c1 [IAJD 156] , answer whether its Size (d, nm) meets or surpasses 100 nm.
A: no

Q: Given the entry CCCCCCCCCCCCCCCOc1cc(COC(=O)CCCN2CCN(C)CC2)cc(OCCCCCCCCCCCC)c1 [IAJD 143] , answer whether its Size (d, nm) meets or surpasses 100 nm.
A: yes

* * *

- ASSAY TEXT: Dimensions (size, PDI) of DNPs co-assembled from IAJDs and Luc-mRNA by DLS
- Format: physicochemical
- TEST PARAMETERS: Table 16; DNPs from IAJD 4 mg/mL and Luc-mRNA 0.10 mg/mL by injection in acetate buffer (10 mM, pH 4.0)
Items are presented alongside their recorded PDI.
The reply should be a number, written without any unit.

Solved cases (10 shown):
| COMPOUND | PDI |
| --- | --- |
| CCCCCCCCCCCCCCCCCCOc1cc(COC(=O)CCCN2CCN(CCO)CC2)cc(OCCCCCCCCCCCCCCC)c1 | 0.407 |
| CCCCCCCCCCCCCCCCOc1cc(COC(=O)CCCN2CCN(CCO)CC2)cc(OCCCCCCCCCCCCCCC)c1 | 0.454 |
| CCCCCCCCCCCCCCCCOc1cc(COC(=O)CCCN2CCN(CCO)CC2)cc(OCCCCCCCCCCC)c1 | 0.474 |
| CCCCCCCCCCCCCCCOc1cc(COC(=O)CCCN2CCN(CCO)CC2)cc(OCCCCCCCCCC)c1 | 0.293 |
| CCCCCCCCCCCCCOc1cc(COC(=O)CCCN2CCN(CCO)CC2)cc(OCC(CC)CCCC)c1 (stereo not drawn) | 0.301 |
| CCCCCCCCCCCCCCCOc1cc(COC(=O)CCCN2CCN(C)CC2)cc(OCCCCCCCCCC)c1 | 0.313 |
| CCCCCCCCCCCCCCOc1cc(CNC(=O)CCCN2CCN(C)CC2)cc(OCCCCCCCCCCC)c1 | 0.414 |
| CCCCCCCCCCCCCCOc1cc(COC(=O)CCCN2CCN(CCO)CC2)cc(OCCCCCCCCCCCCC)c1 | 0.203 |
| CCCCCCCCCCCCCOc1cc(COC(=O)CCCN2CCN(C)CC2)cc(OCC(CC)CCCC)c1 (stereo not drawn) | 0.235 |
| CCCCCCCCCCCCCCCOc1cc(COC(=O)CCCN2CCN(C)CC2)cc(OCC(CC)CCCC)c1 (stereo not drawn) | 0.267 |

The recorded PDI for entry CCCCCCCCCCCOc1cc(COC(=O)c2cc(OCCOCCOCCCC(=O)CCCN3CCCCC3)c(OCCOCCOCCOCc3ccccc3)c(OCCOCCOCCOC(=O)CCCN3CCCCC3)c2)cc(OCC(CC)CCCC)c1 (stereo not drawn) equals 0.279

The recorded PDI for entry "CCCCCCCCCCCCCCCOc1cc(COC(=O)CCCN2CCN(CCO)CC2)cc(OCCCCCCCCCCC)c1" equals 0.459

The recorded PDI for entry CCCCCCCCCCCCCCCOc1cc(COC(=O)CCCN2CCN(CCO)CC2)cc(OCC(CC)CCCC)c1 (stereo not drawn) equals 0.307

The recorded PDI for entry "CCCCCCCCCCCOc1cc(COC(=O)c2cc(OCCOCCOCCCC(=O)CCCN3CCCCC3)c(OCCOCCOCCOCc3ccccc3)c(OCCOCCOCCOC(=O)CCCN3CCCCC3)c2)cc(OCCCCCCCCCCC)c1" equals 0.232

The recorded PDI for entry "CCCCCCCCCCCCCCCOc1cc(COC(=O)CCCN2CCN(C)CC2)cc(OCCCCCCCCCCC)c1" equals 0.278

The recorded PDI for entry "CCCCCCCCCCCCCCCOc1cc(COC(=O)CCCN2CCN(C)CC2)cc(OCCCCCCCCCCCC)c1" equals 0.270

The recorded PDI for entry "CCCCCCCCCCCCCCOc1cc(COC(=O)CCCN2CCN(CCO)CC2)cc(OCCCCCCCCCCC)c1" equals 0.300

The recorded PDI for entry "CCCCCCCCCCCCCCCOc1cc(COC(=O)CCCN2CCN(CCO)CC2)cc(OCCCCCCCCCCCC)c1" equals 0.432

The recorded PDI for entry "CCCCCCCCCCCCCCCCCOc1cc(COC(=O)c2cc(OCCOCCOCCCC(=O)CCCN3CCCCC3)c(OCCOCCOCCOCc3ccccc3)c(OCCOCCOCCOC(=O)CCCN3CCCCC3)c2)cc(OCCCCCCCCCCC)c1" equals 0.246

The recorded PDI for entry "CCCCCCCCCCCCCCCCOc1cc(COC(=O)CCCN2CCN(C)CC2)cc(OCCCCCCCCCCCCC)c1" equals 0.301

The recorded PDI for entry "CCCCCCCCCCCCCCCCCCOc1cc(COC(=O)CCCN2CCN(C)CC2)cc(OCCCCCCCCCCCCC)c1" equals 0.275
